Where do the numbers come from? From patent US20230295118A1.

Here the recorded DC50 is given for each entry.
# system tested: CDK4 (Homo sapiens, UniProt P11802)
# Construct: endogenous in cells
# Sequence (P11802 whole entry): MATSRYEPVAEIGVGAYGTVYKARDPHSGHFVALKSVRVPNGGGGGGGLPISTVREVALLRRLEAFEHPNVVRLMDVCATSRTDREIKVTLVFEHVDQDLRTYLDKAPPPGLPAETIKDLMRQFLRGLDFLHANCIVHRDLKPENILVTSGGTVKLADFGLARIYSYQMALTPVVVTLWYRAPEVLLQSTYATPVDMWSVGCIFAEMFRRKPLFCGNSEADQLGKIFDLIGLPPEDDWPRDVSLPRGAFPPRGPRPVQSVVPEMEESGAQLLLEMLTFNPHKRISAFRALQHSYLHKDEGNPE
# method: CDK4 degradation (DC50, Dmax)
# Assay type: cell-based
property measured: DC50

>>> observed_measurement("CC(=O)c1c(C)c2cnc(Nc3ccc(N4CCN(C(=O)C5CCN(c6ccc7c(c6)C(=O)N(C6CCC(=O)NC6=O)C7=O)CC5)CC4)cn3)nc2n(C2CCCC2)c1=O (centres unmarked)")
"0.05 to 0.2 µM"
>>> observed_measurement("CC(=O)c1c(C)c2cnc(Nc3ccc(N4CCN(CC5CCN(C(=O)N6CCC(C7CCN(c8ccc9c(c8)C(=O)N(C8CCC(=O)NC8=O)C9=O)CC7)CC6)CC5)CC4)cn3)nc2n(C2CCCC2)c1=O (centres unmarked)")
"> 0.2 µM"
>>> observed_measurement("CC(=O)c1c(C)c2cnc(Nc3ccc(N4CCN(CC5CCN(C(=O)N6CCN(c7ccc8c(c7)C(=O)N(C7CCC(=O)NC7=O)C8=O)CC6)CC5)CC4)cn3)nc2n(C2CCCC2)c1=O (centres unmarked)")
"0.05 to 0.2 µM"
>>> observed_measurement("CC(=O)c1c(C)c2cnc(Nc3ccc(N4CCN(CCN(C)c5ccc6c(c5)CN(C5CCC(=O)NC5=O)C6=O)CC4)cn3)nc2n(C2CCCC2)c1=O (centres unmarked)")
"0.05 to 0.2 µM"
>>> observed_measurement("CC(=O)c1c(C)c2cnc(Nc3ccc(N4CCN(CC5CN(c6ccc7c(c6)CN(C6CCC(=O)NC6=O)C7=O)C5)CC4)cn3)nc2n(C2CCCC2)c1=O (centres unmarked)")
"< 0.05 µM"

====

# system tested: CDK6 (Homo sapiens, UniProt Q00534)
# Construct: endogenous in cells
# Sequence (Q00534 whole entry): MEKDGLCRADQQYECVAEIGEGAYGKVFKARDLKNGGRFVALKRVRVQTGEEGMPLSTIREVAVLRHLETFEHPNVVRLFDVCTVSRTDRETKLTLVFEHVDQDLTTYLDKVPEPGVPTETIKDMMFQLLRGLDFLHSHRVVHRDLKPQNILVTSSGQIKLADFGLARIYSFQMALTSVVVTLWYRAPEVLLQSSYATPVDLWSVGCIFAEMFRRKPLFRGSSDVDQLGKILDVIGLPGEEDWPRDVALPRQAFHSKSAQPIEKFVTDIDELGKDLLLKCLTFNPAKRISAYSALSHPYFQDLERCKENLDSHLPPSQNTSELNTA
# method: CDK6 degradation (DC50, Dmax)
# Assay type: cell-based
property measured: Dmax

>>> observed_measurement("CC(=O)c1c(C)c2cnc(Nc3ccc(N4CCN(C(=O)N5CCC(CCC6CCN(c7ccc8c(c7)C(=O)N(C7CCC(=O)NC7=O)C8=O)CC6)CC5)CC4)cn3)nc2n(C2CCCC2)c1=O (centres unmarked)")
"> 60%"
>>> observed_measurement("Cc1nc2c(F)cc(-c3nc(Nc4ccc(CN5CCN(C(=O)C6CCN(c7ccc(C(=O)NC8CCC(=O)NC8=O)cc7)CC6)CC5)cn4)ncc3F)cc2n1C(C)C (centres unmarked)")
"> 50%"
>>> observed_measurement("CC(=O)c1c(C)c2cnc(Nc3ccc(N4CCN(CC5CCN(C(=O)N6CCN(c7ccc8c(c7)CN(C7CCC(=O)NC7=O)C8=O)CC6)CC5)CC4)cn3)nc2n(C2CCCC2)c1=O (centres unmarked)")
"> 60%"
>>> observed_measurement("Cc1nc2c(F)cc(-c3nc(Nc4ccc(CC5CCN(CC6CCN(c7ccc(NC8CCC(=O)NC8=O)cc7)CC6)CC5)cn4)ncc3F)cc2n1C(C)C (centres unmarked)")
"> 80%"
>>> observed_measurement("CC(=O)c1c(C)c2cnc(Nc3ccc(N4CCN(C(=O)N5CCC(N6CCN(c7ccc8c(c7)C(=O)N(C7CCC(=O)NC7=O)C8=O)CC6)CC5)CC4)cn3)nc2n(C2CCCC2)c1=O (centres unmarked)")
"> 50%"

====

# system tested: CDK6 (Homo sapiens)
# Construct: endogenous in cells
# method: CDK6 degradation (DC50, Dmax)
# Type: cell-based
# maps each entry to its Dmax
property measured: Dmax

>>> observed_measurement("CC(=O)c1c(C)c2cnc(Nc3ccc(N4CCN(C5CCN(c6cccc7c6C(=O)N(C6CCC(=O)NC6=O)C7=O)CC5)CC4)cn3)nc2n(C2CCCC2)c1=O (stereo not shown) [Compound 77]")
"> 60%"
>>> observed_measurement("CC(=O)c1c(C)c2cnc(Nc3ccc(N4CCN(C(=O)N5CCC(N6CCC(c7ccc8c(c7)CN(C7CCC(=O)NC7=O)C8=O)CC6)CC5)CC4)cn3)nc2n(C2CCCC2)c1=O (stereo not shown) [Compound 8]")
"> 50%"
>>> observed_measurement("Cc1nc2c(F)cc(-c3nc(Nc4ccc(CN5CCN(CCCNc6ccc7c(c6)CN(C6CCC(=O)NC6=O)C7=O)CC5)cn4)ncc3F)cc2n1C(C)C (stereo not shown) [Compound 74]")
"> 80%"
>>> observed_measurement("CC(=O)c1c(C)c2cnc(Nc3ccc(N4CCN(C(=O)N5CCN(CCN6CCC(c7ccc8c(c7)C(=O)N(C7CCC(=O)NC7=O)C8=O)CC6)CC5)CC4)cn3)nc2n(C2CCCC2)c1=O (stereo not shown) [Compound 27]")
"> 60%"
>>> observed_measurement("CC(=O)c1c(C)c2cnc(Nc3ccc(C4CCN(CC5CN(c6ccc(C(=O)NC7CCC(=O)NC7=O)cc6)C5)CC4)cn3)nc2n(C2CCCC2)c1=O (stereo not shown) [Compound 127]")
"> 80%"
>>> observed_measurement("Cc1nc2c(F)cc(-c3nc(Nc4ccc(CN5CCN(CCCNc6cccc7c6C(=O)N(C6CCC(=O)NC6=O)C7=O)CC5)cn4)ncc3F)cc2n1C(C)C (stereo not shown) [Compound 100]")
"> 80%"
>>> observed_measurement("Cc1nc2c(F)cc(-c3nc(Nc4ccc(CN5CCN(CC6CN(c7ccc8c(c7)CN(C7CCC(=O)NC7=O)C8=O)C6)CC5)cn4)ncc3F)cc2n1C(C)C (stereo not shown) [Compound 95]")
"> 80%"
>>> observed_measurement("Cc1nc2c(F)cc(-c3nc(Nc4ccc(CC5CCN(CC6CN(c7ccc(NC8CCC(=O)NC8=O)cc7)C6)CC5)cn4)ncc3F)cc2n1C(C)C (stereo not shown) [Compound 142]")
"> 80%"
>>> observed_measurement("Cc1nc2c(F)cc(-c3nc(Nc4ccc(CC5CCN(CC6CCN(c7ccc8c(c7)CN(C7CCC(=O)NC7=O)C8=O)CC6)CC5)cn4)ncc3F)cc2n1C(C)C (stereo not shown) [Compound 158]")
"> 80%"
>>> observed_measurement("Cc1nc2c(F)cc(-c3nc(Nc4ccc(CC5CCN(C(=O)C6CCN(c7ccc8c(c7)C(=O)N(C7CCC(=O)NC7=O)C8=O)CC6)CC5)cn4)ncc3F)cc2n1C(C)C (stereo not shown) [Compound 161]")
"> 60%"
>>> observed_measurement("CC(=O)c1c(C)c2cnc(Nc3ccc(N4CCN(C(=O)N5CCN(C6CCN(c7ccc8c(c7)CN(C7CCC(=O)NC7=O)C8=O)CC6)CC5)CC4)cn3)nc2n(C2CCCC2)c1=O (stereo not shown) [Compound 6]")
"> 50%"
>>> observed_measurement("Cc1nc2c(F)cc(-c3nc(Nc4ccc(CN5CCN(C6CN(c7ccc8c(c7)CN(C7CCC(=O)NC7=O)C8=O)C6)CC5)cn4)ncc3F)cc2n1C(C)C (stereo not shown) [Compound 97]")
"> 80%"
>>> observed_measurement("Cc1nc2c(F)cc(-c3nc(Nc4ccc(CC5CCN(C(=O)C6CN(c7ccc(NC8CCC(=O)NC8=O)cc7)C6)CC5)cn4)ncc3F)cc2n1C(C)C (stereo not shown) [Compound 146]")
"> 60%"
>>> observed_measurement("CC(=O)c1c(C)c2cnc(Nc3ccc(N4CCN(C5CCN(C(=O)N6CCC(c7ccc8c(c7)C(=O)N(C7CCC(=O)NC7=O)C8=O)CC6)CC5)CC4)cn3)nc2n(C2CCCC2)c1=O (stereo not shown) [Compound 37]")
"> 50%"
>>> observed_measurement("CC(=O)c1c(C)c2cnc(Nc3ccc(N4CCN(C5CN(c6ccc(C(=O)NC7CCC(=O)NC7=O)cc6)C5)CC4)cn3)nc2n(C2CCCC2)c1=O (stereo not shown) [Compound 102]")
"> 60%"
>>> observed_measurement("Cc1nc2c(F)cc(-c3nc(Nc4ccc(CN5CCN(C6CCN(c7ccc(NC8CCC(=O)NC8=O)cc7)CC6)CC5)cn4)ncc3F)cc2n1C(C)C (stereo not shown) [Compound 168]")
"> 80%"
>>> observed_measurement("CC(=O)c1c(C)c2cnc(Nc3ccc(N4CCN(CC5CCN(c6cccc7c6C(=O)N(C6CCC(=O)NC6=O)C7=O)CC5)CC4)cn3)nc2n(C2CCCC2)c1=O (stereo not shown) [Compound 78]")
"> 60%"
>>> observed_measurement("CC(=O)c1c(C)c2cnc(Nc3ccc(N4CCN(C(=O)C5CCN(c6ccc(NC7CCC(=O)NC7=O)cc6)CC5)CC4)cn3)nc2n(C2CCCC2)c1=O (stereo not shown) [Compound 117]")
"> 60%"
>>> observed_measurement("Cc1nc2c(F)cc(-c3nc(Nc4ccc(CN5CCN(CC6CCCN(c7ccc(N8CCC(=O)NC8=O)cc7)C6)CC5)cn4)ncc3F)cc2n1C(C)C (stereo not shown) [Compound 110]")
"> 80%"
>>> observed_measurement("Cc1nc2c(F)cc(-c3nc(Nc4ccc(CN5CCN(C(=O)C6CN(c7ccc(NC8CCC(=O)NC8=O)cc7)C6)CC5)cn4)ncc3F)cc2n1C(C)C (stereo not shown) [Compound 138]")
"> 60%"
>>> observed_measurement("CC(=O)c1c(C)c2cnc(Nc3ccc(N4CCN(CC5CN(c6ccc7c(c6)C(=O)N(C6CCC(=O)NC6=O)C7=O)C5)CC4)cn3)nc2n(C2CCCC2)c1=O (stereo not shown) [Compound 80]")
"> 80%"
>>> observed_measurement("CC(=O)c1c(C)c2cnc(Nc3ccc(N4CCN(C(=O)N5CCN(CCN6CCC(c7ccc8c(c7)CN(C7CCC(=O)NC7=O)C8=O)CC6)CC5)CC4)cn3)nc2n(C2CCCC2)c1=O (stereo not shown) [Compound 28]")
"> 60%"
